System: HS 578T breast
Test: NCI tumour cell line growth inhibition, 48 h
Endpoint Label: TGI

>>> experimental_value("COc1ccc(-c2c(C#N)c(S)n(C3OC(CO)C(O)C(O)C3O)c(=O)c2C#N)cc1 (stereo not given)")
"> 100 µM"
>>> experimental_value("CC(C)N1CSC(=S)N(Cc2ccccc2)C1")
"> 10 µM"
>>> experimental_value("Cc1c2cnccc2nc2[nH]c3ccncc3c12")
"> 100 µM"
>>> experimental_value("CC1=CC(=O)C(C(C)=Nc2ccccc2Cl)C(=O)O1 (stereo not given)")
"> 100 µM"
>>> experimental_value("O=c1[nH]cnc2c(C3OC(CO)C(O)C3O)scc12 (stereo not given)")
"> 100 µM"

Which TGI value is on record for Cc1cc(NS(=O)(=O)c2ccc(Nc3c4ccccc4nc4ccc(C(=O)Nc5ccc(S(=O)(=O)N=C(N)N)cc5)cc34)cc2)no1 ?
> 100 µM

Which TGI value is on record for c1ccc2c(c1)CCN2CCc1c[nH]c2ccccc12 ?
> 10 µM

Which TGI value is on record for CC(C)(C)OC(=O)CN1CCNCCN(CC(=O)OC(C)(C)C)CC1 ?
> 100 µM

Which TGI value is on record for CCOC(=O)c1cnn(-c2ccnc3c(C(F)(F)F)cccc23)c1N ?
> 100 µM

Which TGI value is on record for CSc1c(C(=O)Nc2ccc(Cl)cc2)c(N)[nH]c(=O)c1C#N ?
> 100 µM

Data provenance: PubChem BioAssay (NCI)
